assay: Log P determined in accordance with OECD Guideline No. 107 for the Testing of Chemicals (water/n-octanol); conditions: log P value, as printed in the abbreviations list
The reader will find reported logP values listed item by item below.

COMPOUND | logP
CC(=O)CC(C)C | 1.31
CCCCCCCCCC(=O)N(C)C [Decanoic acid dimethyl amide] | 2.94

----------
assay: Log P determined in accordance with OECD Guideline No. 107 for the Testing of Chemicals (water/n-octanol); settings: Log P (Log P value of the solvent, as measured in accordance with Guideline No. 107), summary table of the examples
MEASURED_PROPERTY: logP

COMPOUND | MEASURED_PROPERTY | VALUE_OBSERVED
CC(=O)CC(C)C | logP | 1.4
CCCCCCCCCC(=O)N(C)C [Decanoic acid dimethyl amide] | logP | 2.94
COC(C)(C)C | logP | 1.12

Taken from patent US20080188688A1.
